System: Fibroblast
Assay Procedure: Multiplex assay against human fibroblast
Format: toxicity, cell-based
Conditions Used: 48 h, 1 µM, compound concentration 1 uM, replicate 2
Assign Satisfied to entries whose Population Pyknosed Nuclei (%) meets or exceeds 10%; assign Not satisfied to the rest.

> print(dat)
                                   molecule  assay.system  classification
1  Cc1ccc(F)cc1C(=O)Nc1ccc(C(=O)N2Cc3cccn3Cc3ccccc32)c(Cl)c1    Fibroblast       Satisfied
2  CCOc1c2c(c(OCC)c3ncccc13)CN(c1ccc(CS(=O)(=O)NC(=O)Cc3ccccc3OC)cc1C)C2=O    Fibroblast       Satisfied
3  CCCN1CCC[C@@H]2Cc3n[nH]cc3C[C@H]21.Cl [QUINPIROLE HYDROCHLORIDE]    Fibroblast   Not satisfied
4  CCNC1(C(N)=O)CCN(c2ncnc3c2nc(-c2ccccc2Cl)n3-c2ccc(Cl)cc2)CC1    Fibroblast       Satisfied
5  COc1cc(C(=O)N(CCCc2ccccc2)Cc2ccc(CC(=O)O)cc2)cc(OC)c1C    Fibroblast   Not satisfied
6      CC(=O)NCCc1c(Cc2ccccc2)[nH]c2ccccc12    Fibroblast       Satisfied
7  C[C@@H]1C[C@H]2[C@@H]3CCC4=CC(=O)C=C[C@]4(C)[C@@]3(F)[C@@H](O)C[C@]2(C)[C@@]1(O)C(=O)CO    Fibroblast       Satisfied
8   CN(C)c1ccnc2sc3c(=O)n(N4CCCCCC4)cnc3c12    Fibroblast       Satisfied

====

Test system: HEK-293T
Assay Procedure: Multiplex assay against HEK293T
Assay type: toxicity, cell-based
Conditions Used: human, 48 h, 1 µM, compound concentration 1 uM, replicate 2
Readout: Population Healthy Nuclei (%)

> print(dat)
                                   compound  assay.system                        readout  value.observed
1  CN1CCN(c2nc3cc(C(F)(F)F)ccc3n3cccc23)CC1.O=C(O)/C=C\C(=O)O.O=C(O)/C=C\C(=O)O      HEK-293T  Population Healthy Nuclei (%)              79
2  C[C@H]1[C@H]2CC[C@H]3[C@@H]4CC=C5C[C@@H](N(C)C)CC[C@]5(C)[C@H]4CC[C@]23CN1C [CONESSINE]      HEK-293T  Population Healthy Nuclei (%)              83
3  CCCN1CCC[C@@H]2Cc3n[nH]cc3C[C@H]21.Cl [QUINPIROLE HYDROCHLORIDE]      HEK-293T  Population Healthy Nuclei (%)              84
4  Cc1nc2ccc(Oc3ccc(F)cc3)cc2c(=O)n1C[C@H]1CCCN(C(C)C)C1.Cl      HEK-293T  Population Healthy Nuclei (%)              80
5  c1cc(OCCCN2CCCCC2)ccc1CN1CCCCC1 [JNJ-5207852]      HEK-293T  Population Healthy Nuclei (%)              83

====

Tested on: Fibroblast
Assay Procedure: Multiplex assay against human fibroblast
Type: toxicity, cell-based
Conditions Used: 12 h, 10 µM, compound concentration 10 uM, replicate 2
Readout: Population Mitotic Cells (%)

Molecule	Value Observed
Cc1ccc(C(C)(O)c2nc3ccccc3s2)c(C)c1 (centres undefined)	77
CC[C@H]1OC(=O)[C@H](C)[C@@H](O[C@H]2C[C@@](C)(OC)[C@@H](O)[C@H](C)O2)[C@H](C)[C@@H](O[C@@H]2O[C@H](C)C[C@H](N(C)C)[C@H]2O)[C@@]2(C)CC(C)=C(O2)[C@H](C)[C@@H](O)[C@]1(C)O	59
CN1CCN2c3ncccc3Cc3ccccc3C2C1 (centres undefined)	71
O=C(O)c1cc2ccccc2c(Cc2c(O)c(C(=O)O)cc3ccccc23)c1O	62
